Where these numbers come from: the RNAGym collection of RNA variant scans (doi:10.1073/pnas.2313332121)

Entries and their polymerase ribozyme fitness (log ratio)
B1: TPR t1 (parent)
chain: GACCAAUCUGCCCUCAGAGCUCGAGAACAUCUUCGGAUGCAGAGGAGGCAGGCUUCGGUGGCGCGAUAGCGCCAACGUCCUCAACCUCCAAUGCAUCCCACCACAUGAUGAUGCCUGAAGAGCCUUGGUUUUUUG

Variants of: B1
experimental protocol: polymerase ribozyme fitness, log enrichment relative to wild type (log ratio); higher = more active; in vitro selection for triplet polymerase activity
I only need the number, thanks.

[[record]]
var = "C11G G51A C72A"
property = "polymerase ribozyme fitness (log ratio)"
endpoint_value = -2.19

[[record]]
var = "G61A A118G"
property = "polymerase ribozyme fitness (log ratio)"
endpoint_value = -0.742

[[record]]
var = "C11U C56A A91U U96C"
property = "polymerase ribozyme fitness (log ratio)"
endpoint_value = -3.51


Sample U33G C94A G113C G117A ; polymerase ribozyme fitness (log ratio) observed: -6.01

Sample C3G C49G ; polymerase ribozyme fitness (log ratio) observed: -3.17

Sample C12A C56A C80U A84U C89U A119G C123A ; polymerase ribozyme fitness (log ratio) observed: -0.802
